All figures here come from paper PMC4253547.

- measured-target: T1, MBP-AF9 (WT) (UniProt P42568 1-568)
- T1 sequence (looked up): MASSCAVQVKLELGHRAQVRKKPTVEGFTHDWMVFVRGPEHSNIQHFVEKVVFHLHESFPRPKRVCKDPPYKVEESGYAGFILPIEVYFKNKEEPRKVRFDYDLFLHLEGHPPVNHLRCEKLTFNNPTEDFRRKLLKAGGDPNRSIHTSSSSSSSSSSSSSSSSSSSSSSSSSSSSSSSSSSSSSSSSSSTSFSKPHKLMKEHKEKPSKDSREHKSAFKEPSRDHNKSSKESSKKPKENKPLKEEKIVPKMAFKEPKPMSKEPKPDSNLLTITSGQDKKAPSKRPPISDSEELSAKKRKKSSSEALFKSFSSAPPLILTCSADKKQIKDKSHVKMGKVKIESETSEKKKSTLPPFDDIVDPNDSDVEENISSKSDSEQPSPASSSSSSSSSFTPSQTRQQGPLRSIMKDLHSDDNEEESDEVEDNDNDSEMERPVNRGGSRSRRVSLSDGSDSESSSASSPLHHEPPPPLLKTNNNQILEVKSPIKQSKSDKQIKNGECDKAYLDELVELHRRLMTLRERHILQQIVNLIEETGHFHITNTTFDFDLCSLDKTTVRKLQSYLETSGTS
- method-summary: other fluorescence titration
Where no end group is shown, it is not given here.
Readings of pKd for the listed binders
Please report pKd as the negative decimal logarithm of the molar concentration, giving only the number.

binder | observed-result
LIVDIDLNLLTRIP (also: fluorescein (position not given here)) [Fluorescein AFF4 (K717D) peptide] | 7.43

From here, focus on the item given below.
Entry LIVKIDLNLLTRIP (also: fluorescein (position not given here)) [Fluorescein AFF4 (WT) peptide] ; pKd = 9.70
